Protocol Text: Binding affinity to Escherichia coli helix 31 at pH 7 after 30 mins by ESI-MS analysis
Run Conditions: read-out: Kd(app)
Observable: Kd (µM)
Lab book: enter the figure in µM, no units written.

// query I'd like to know its Kd. The substance in question is `H-NQVANHQ-NH2`
// result 33
